biological target: panel of more than 300 wild-type and mutant kinases (313 kinase panel) (Homo sapiens, UniProt Q14680); test: Kinase profiling in a biochemical assay panel (mobility shift assays and ELISA), %-inhibition at 1 μM; selectivity entropy; settings: kinase MELK; compound at 1 μM
Listed compounds paired with reported %-inhibition of MELK
Numbers only; they are read as %.

CC(C)(C)c1nc(-c2cccc(NS(=O)(=O)c3c(F)cccc3F)c2F)c(-c2ccnc(N)n2)s1 = 82
CCN(CC)CCNC(=O)c1c(C)[nH]c(/C=C2\C(=O)Nc3ccc(F)cc32)c1C = 95
CO[C@H]1C[C@@H]2CC[C@@H](C)[C@@](O)(O2)C(=O)C(=O)N2CCCC[C@H]2C(=O)O[C@H]([C@H](C)C[C@@H]2CC[C@@H](OC(=O)C(C)(CO)CO)[C@H](OC)C2)CC(=O)[C@H](C)/C=C(\C)[C@@H](O)[C@@H](OC)C(=O)[C@H](C)C[C@H](C)/C=C/C=C/C=C/1C = -1.66
Cc1ccc(Nc2nccc(N(C)c3ccc4c(C)n(C)nc4c3)n2)cc1S(N)(=O)=O = -0.665
CC(=O)Nc1cccc(-n2c(=O)n(C3CC3)c(=O)c3c(Nc4ccc(I)cc4F)n(C)c(=O)c(C)c32)c1 = -0.588

Request the reported %-inhibition of MELK associated with CNC(=O)c1cc(Oc2ccc(NC(=O)Nc3ccc(Cl)c(C(F)(F)F)c3)c(F)c2)ccn1 -4.52

Request the reported %-inhibition of MELK associated with CS(=O)(=O)CCNCc1ccc(-c2ccc3ncnc(Nc4ccc(OCc5cccc(F)c5)c(Cl)c4)c3c2)o1 -3.71

---

system: forty-four human cancer cell lines; assay: Cell proliferation assay (ATPlite, 72 hours) in the 44 cell line Oncolines panel; type: cell-based; conditions: Homo sapiens, A 172, read-out: cell panel IC50, A-172
Measurement kind: pIC50
Entry type: numeric. Quantity: pIC50, the -log10 of concentration in molar units.

Which pIC50 is reported with forty-four human cancer cell lines for this entry: CN(C)C/C=C/C(=O)Nc1cc2c(Nc3ccc(F)c(Cl)c3)ncnc2cc1O[C@H]1CCOC1 ? 5.53

---

molecular target: panel of more than 300 wild-type and mutant kinases (313 kinase panel) (Homo sapiens); experiment: Kinase profiling in a biochemical assay panel (mobility shift assays and ELISA), %-inhibition at 1 μM; selectivity entropy; settings: kinase JNK3; compound at 1 μM
Listed compounds paired with reported %-inhibition of JNK3
Numbers only; they are read as %.

Sample answers from the record:
CC(C)(C)c1nc(-c2cccc(NS(=O)(=O)c3c(F)cccc3F)c2F)c(-c2ccnc(N)n2)s1 = 5.59
Cc1cn(-c2cc(NC(=O)c3ccc(C)c(Nc4nccc(-c5cccnc5)n4)c3)cc(C(F)(F)F)c2)cn1 = 39
N#CC[C@H](C1CCCC1)n1cc(-c2ncnc3[nH]ccc23)cn1 = -3

Field: next compound
Which %-inhibition of JNK3 is reported with panel of more than 300 wild-type and mutant kinases (313 kinase panel) (Homo sapiens) for this entry: CCCS(=O)(=O)Nc1ccc(F)c(C(=O)c2c[nH]c3ncc(-c4ccc(Cl)cc4)cc23)c1F ? 2.85

---

Listed compounds paired with reported %-inhibition of DYRK1A
molecular target: panel of more than 300 wild-type and mutant kinases (313 kinase panel) (Homo sapiens, UniProt Q13627); assay: Kinase profiling in a biochemical assay panel (mobility shift assays and ELISA), %-inhibition at 1 μM; selectivity entropy; details: kinase DYRK1A; compound at 1 μM
Numbers only; they are read as %.

CC(C)(C)c1nc(-c2cccc(NS(=O)(=O)c3c(F)cccc3F)c2F)c(-c2ccnc(N)n2)s1 = 16
COc1cc2c(Nc3ccc(Br)cc3F)ncnc2cc1OCC1CCN(C)CC1 = -11
CNC(=O)c1cc(Oc2ccc(NC(=O)Nc3ccc(Cl)c(C(F)(F)F)c3)c(F)c2)ccn1 = -15
O=S(=O)(c1cccc2cnccc12)N1CCCNCC1 = 4.23

Request the reported %-inhibition of DYRK1A associated with N#CC[C@H](C1CCCC1)n1cc(-c2ncnc3[nH]ccc23)cn1 -5

Request the reported %-inhibition of DYRK1A associated with CC(=O)Nc1cccc(-n2c(=O)n(C3CC3)c(=O)c3c(Nc4ccc(I)cc4F)n(C)c(=O)c(C)c32)c1 -1.23
